tested on: human AML cell line, MV4-11; assay: Anticancer activity in acute myeloid leukemia (AML) animal model; format: in vivo, Balb/C nude mice; conditions: Mus musculus, iv, 288 h; dose 25 mg/kg, intravenously once a day, five times per week for two weeks; MV4-11 implanted nude mice; Day 12 vs Day 1; read-out: Tumor growth Inhibition Rate
Provide the recorded inhibition in vivo at 25 mg/kg for the entries that follow.

Sure, the documented inhibition in vivo at 25 mg/kg for C=CCN1CC(=O)N2[C@@H](Cc3ccc(OP(=O)(O)O)cc3)C(=O)N(Cc3cccc4c(C(=O)C5CC5)cn(C)c34)C[C@@H]2N1C(=O)NCc1ccccc1 [Compound C1] is > 100%

Please fill in: inhibition in vivo at 25 mg/kg reported for C=CCN1CC(=O)N2[C@@H](Cc3ccc(OP(=O)(O)O)cc3)C(=O)N(Cc3cccc4c(C(C)=O)cn(CCC)c34)C[C@@H]2N1C(=O)NCc1ccccc1 [Compound A3] = > 100%

inhibition in vivo at 25 mg/kg measured on C=CCN1CC(=O)N2[C@@H](Cc3ccc(OP(=O)(O)O)cc3)C(=O)N(Cc3cccc4c(C(=O)C5CC5)c[nH]c34)C[C@@H]2N1C(=O)NCc1ccccc1 [Compound C] = 25%

inhibition in vivo at 25 mg/kg in this record for C=CCN1CC(=O)N2[C@@H](Cc3ccc(OP(=O)(O)O)cc3)C(=O)N(Cc3cccc4c(C(C)=O)c[nH]c34)C[C@@H]2N1C(=O)NCc1ccccc1 [Compound A] : 61%

# inhibition in vivo at 25 mg/kg of C=CCN1CC(=O)N2[C@@H](Cc3ccc(OP(=O)(O)O)cc3)C(=O)N(Cc3cccc4c(C(=O)C5CC5)cn(CC)c34)C[C@@H]2N1C(=O)NCc1ccccc1 [Compound C2] = > 100%

// field: inhibition in vivo at 25 mg/kg; key: C=CCN1CC(=O)N2[C@@H](Cc3ccc(OP(=O)(O)O)cc3)C(=O)N(Cc3cccc4c(C(C)=O)cn(C)c34)C[C@@H]2N1C(=O)NCc1ccccc1 [Compound A2] ; value = > 100%

The reported value for C=CCN1CC(=O)N2[C@@H](Cc3ccc(OP(=O)(O)O)cc3)C(=O)N(Cc3cccc4c(C(=O)CC(C)(C)C)c[nH]c34)C[C@@H]2N1C(=O)NCc1ccccc1 [Compound B] in terms of inhibition in vivo at 25 mg/kg is 49%

Record C=CCN1CC(=O)N2[C@@H](Cc3ccc(OP(=O)(O)O)cc3)C(=O)N(Cc3cccc4c(C(=O)CC(C)(C)C)cn(C)c34)C[C@@H]2N1C(=O)NCc1ccccc1 [Compound B2] . Reported inhibition in vivo at 25 mg/kg: > 100%

The measured inhibition in vivo at 25 mg/kg associated with C=CCN1CC(=O)N2[C@@H](Cc3ccc(OP(=O)(O)O)cc3)C(=O)N(Cc3cccc4c(C(=O)CC)cn(C)c34)C[C@@H]2N1C(=O)NCc1ccccc1 [Compound A1] reads > 100%

The recorded inhibition in vivo at 25 mg/kg for C=CCN1CC(=O)N2[C@@H](Cc3ccc(OP(=O)(O)O)cc3)C(=O)N(Cc3cccc4c(C(=O)CC(C)(C)C)cn(CCC)c34)C[C@@H]2N1C(=O)NCc1ccccc1 [Compound B1] is > 100%

Values from patent US20100267672A1
